The reported measurements were obtained from ChEMBL document CHEMBL6083289.

# IC50 annotations
# testedTarget: Protein deacetylase HDAC6 (Homo sapiens, UniProt Q9UBN7)
# Sequence (Q9UBN7 whole entry): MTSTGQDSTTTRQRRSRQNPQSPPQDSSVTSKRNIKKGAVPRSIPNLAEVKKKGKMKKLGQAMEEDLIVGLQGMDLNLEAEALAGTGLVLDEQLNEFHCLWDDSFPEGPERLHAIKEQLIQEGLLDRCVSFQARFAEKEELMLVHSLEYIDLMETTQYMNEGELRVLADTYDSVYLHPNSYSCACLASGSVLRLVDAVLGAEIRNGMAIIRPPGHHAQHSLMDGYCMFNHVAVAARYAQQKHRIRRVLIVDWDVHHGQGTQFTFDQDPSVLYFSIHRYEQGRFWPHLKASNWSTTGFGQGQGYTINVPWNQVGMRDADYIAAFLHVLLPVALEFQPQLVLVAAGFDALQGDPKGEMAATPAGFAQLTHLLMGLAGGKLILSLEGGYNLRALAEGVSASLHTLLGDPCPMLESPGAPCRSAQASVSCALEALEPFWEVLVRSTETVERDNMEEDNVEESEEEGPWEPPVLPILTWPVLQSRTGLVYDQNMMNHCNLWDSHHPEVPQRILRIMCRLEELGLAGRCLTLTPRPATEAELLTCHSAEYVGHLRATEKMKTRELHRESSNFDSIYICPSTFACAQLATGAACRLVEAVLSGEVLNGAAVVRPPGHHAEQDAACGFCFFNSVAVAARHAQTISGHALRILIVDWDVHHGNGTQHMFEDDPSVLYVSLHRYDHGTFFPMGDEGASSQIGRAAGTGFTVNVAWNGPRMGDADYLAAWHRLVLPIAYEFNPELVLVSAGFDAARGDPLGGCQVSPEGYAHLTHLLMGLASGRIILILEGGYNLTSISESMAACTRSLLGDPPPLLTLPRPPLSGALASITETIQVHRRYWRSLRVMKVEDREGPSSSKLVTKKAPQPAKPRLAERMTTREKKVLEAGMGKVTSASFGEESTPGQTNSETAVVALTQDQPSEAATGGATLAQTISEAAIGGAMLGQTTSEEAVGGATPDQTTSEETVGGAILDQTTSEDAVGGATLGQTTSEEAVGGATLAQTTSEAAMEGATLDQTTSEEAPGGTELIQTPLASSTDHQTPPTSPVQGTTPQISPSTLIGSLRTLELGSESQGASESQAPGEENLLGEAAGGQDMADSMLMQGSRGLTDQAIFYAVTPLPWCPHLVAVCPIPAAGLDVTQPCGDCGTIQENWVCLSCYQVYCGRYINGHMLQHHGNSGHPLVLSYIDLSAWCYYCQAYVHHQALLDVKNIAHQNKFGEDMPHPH
# assay: Inhibition of human recombinant HDAC6 using RHKKAc as fluorogenic substrate incubated for 90 mins by fluorescence based analysis
Numeric answer only, unit nM assumed.

- chemicalSmiles: "COc1ccc(-c2csc(C(=O)NOCCCCCC(=O)NO)n2)cc1"
  unit: "nM"
  numericValue: 38
- chemicalSmiles: "Cc1ccc(-c2csc(C(=O)NOCCCCCC(=O)NO)n2)cc1"
  unit: "nM"
  numericValue: 64

Value lookup for IC50; key = O=C(CCCCCONC(=O)c1nc(-c2cc3ccccc3o2)cs1)NO
30

Quick one: IC50 for O=C(CCCCCONC(=O)c1nc(-c2cccc(F)c2)cs1)NO ?
47

Field request: IC50 | item: O=C(CCCCCONC(=O)c1nc(-c2ccccc2)cs1)NO
75

Would you kindly share the measured IC50 for O=C(CCCCCONC(=O)c1nc(-c2ccc(C(F)(F)F)cc2)cs1)NO ?
108

Returns the measured IC50 for the input molecule. Input: O=C(CCCCCONC(=O)c1nc(-c2ccc(F)cc2)cs1)NO
45

Requested read-out: IC50. Entry: COc1cccc(-c2csc(C(=O)NOCCCCCC(=O)NO)n2)c1
26

What value of measured IC50 is listed for O=C(CCCCCONC(=O)c1nc(-c2ccccc2F)cs1)NO ?
51

Name the reported IC50 value associated with the molecule O=C(CCCCCONC(=O)c1nc(-c2ccsc2)cs1)NO
49

Could you tell me which IC50 is on file for COc1ccccc1-c1csc(C(=O)NOCCCCCC(=O)NO)n1 ?
26

Look up IC50 for this molecule: O=C(CCCCCONC(=O)c1nc(-c2cccs2)cs1)NO
81

Name the recorded IC50 for O=C(CCCCCONC(=O)c1nc(-c2ccc(N3CCCC3)cc2)cs1)NO .
64
